Quick reference: PBM binding z-score of the listed items.
- System: PPARg:RXRa 270nM:90nM, anti-RXR (NR concentration 270 nM, RXRa partner concentration 90 nM)
- ASSAY OVERVIEW: PBM binding z-score (relative to random genomic background probes); higher = stronger binding; sequences stand for … in GC…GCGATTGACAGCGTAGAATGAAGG
The response must contain the number and no unit.

>  <ENTRY SEQUENCE>
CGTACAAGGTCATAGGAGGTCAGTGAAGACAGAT

>  <PARAMETER MEASURED>
PBM binding z-score

>  <EXPERIMENTAL RESULT>
6.66

$$$$
>  <ENTRY SEQUENCE>
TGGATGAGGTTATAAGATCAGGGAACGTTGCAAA

>  <PARAMETER MEASURED>
PBM binding z-score

>  <EXPERIMENTAL RESULT>
1.54

$$$$

# return recorded PBM binding z-score for entry `CCTGACAGGTGAGAAGGTAACTCAGCCTCGATTA`
0.701

# return recorded PBM binding z-score for entry `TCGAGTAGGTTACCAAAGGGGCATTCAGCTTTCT`
1.33
